Overview of reported Kd across a group of binders:
target: T1, soluble cynomolgus GPNMB (recombinant extracellular domain) (cynomolgus, UniProt Q14956 23-499 (human entry), limits assumed)
T1 chain: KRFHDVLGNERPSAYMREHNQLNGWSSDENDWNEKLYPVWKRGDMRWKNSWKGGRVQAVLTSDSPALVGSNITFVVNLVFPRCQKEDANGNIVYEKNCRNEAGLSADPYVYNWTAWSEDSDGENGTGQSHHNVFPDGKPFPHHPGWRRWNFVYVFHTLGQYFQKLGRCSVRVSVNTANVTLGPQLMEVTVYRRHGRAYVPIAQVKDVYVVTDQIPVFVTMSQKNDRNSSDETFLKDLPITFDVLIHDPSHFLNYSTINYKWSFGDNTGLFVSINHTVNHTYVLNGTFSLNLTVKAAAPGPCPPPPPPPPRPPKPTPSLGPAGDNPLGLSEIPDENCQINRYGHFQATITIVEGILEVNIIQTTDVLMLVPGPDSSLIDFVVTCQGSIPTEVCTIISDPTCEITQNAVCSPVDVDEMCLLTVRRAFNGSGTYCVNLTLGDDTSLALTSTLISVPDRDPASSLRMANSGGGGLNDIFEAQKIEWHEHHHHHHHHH
assay-comment: SPR Carterra, Ab immobilized

{"binder": "anti-GPNMB antibody GPN-22 (antibody, human IgG1, V domains shown, chimeric) VH: QVQLQQPGAERVKPGASVKMSCKASGYTFTSYWITWVKQRPGQGLEWIGDIFPGSGSTNYHEKFKSKATLTVDTSSSTAYMQLSSLTSEDSAVYYCSRGYFGSSFSDYWGQGTSVTVSS VL: DIQMTQSPSSLSASLGERVSLTCRTSQEISGYLSWLQQKPDGTIKRLIYSTSTLDSGVPKRFSGSRSGSDYSLTISSLESEDFADYYCLQYASSPPTFGSGTKLEIK", "measurement-units": "nM", "Kd": 104}
{"binder": "anti-GPNMB antibody GPN-31 (antibody, human IgG1, V domains shown, chimeric) VH: EVQLQQSGPELVKPGASVKISCKASGYSFTGYYMNWVKQSPEKNLEWIGEINPNTGGTTYNQKFKAKATLTVDKSSTTAYMQLKSLTSEDSAVYYCTRPASWFDYWGQGTLVTVSA VL: DIQMTQSPSSLSASLGERVSLTCRASQEISGHLSWLQQKPDGTIKRLIYAASTLDSGVPKRFSGRRSGSDYSLTISSLESEDFADYYCLQYASYPYTFGGGTKLAIK", "measurement-units": "nM", "Kd": 11.2}
{"binder": "anti-GPNMB antibody GPN-24 (antibody, human IgG1, V domains shown, chimeric) VH: QVQLQQPGAELVKPGASVKMSCKASGYTFTSYWITWVKQRPGQGLEWIGDIHPGSGRSNYNEKFKNKATLNVDTSSSTVYMQLSSLTSEDSAVYYCARDYLFAYWGQGTLVTVSA VL: DIQMTQSPSSLSASLGERVSLTCRASQEISGYLSWLQQKPDGTIKRLIYSTSTLDSGVPKRFSGSRSGSDYSLTISSLESEDFADYYCLQYTSSPPTFGGGTKLEIK", "measurement-units": "nM", "Kd": 8.3}
{"binder": "anti-GPNMB antibody GPN-03 (antibody, human IgG1, V domains shown, chimeric) VH: QVQLQQSGPELVKPGASVKLSCKASGYTFTNYYMYWVKQRPGQGLEWIGEINPRNGGTNFNEKFKSKATLTVDKSSSTAYMQLSSLTFEDSAVYYCTTGLAYWGQGTLVTVSA VL: DVVMTQTPLSLPVSLGDQASISCRSSQSLVHSDGNTYLHWYLQKPGQSPKLLIYKVSTRFSGVPDRFSGSGSGTDFTLKISRVEAEDLGVYFCSQSTHVPWTFGGGTKLEIK", "measurement-units": "nM", "Kd": 38.7}
{"binder": "anti-GPNMB antibody GPN-08 (antibody, human IgG1, V domains shown, chimeric) VH: QVQLQQPGAELVKPGASVKLSCRASGYTFTSYWLHWVKQRPGQGLEWIGEINPSDGRTNYIEKVKTKATLTVDKSSSTAYMQLSSLTSEDSAVYYCARSGGNYAWFAYWGQGTLVTVSA VL: DIVMTQSHKFMSTSVGDRVSITCKASQDVSPSVAWYQQRPGQSPKLLIYSASYRYTGVPDRFTGSGSGTDFTFTISSVQAEDLAVYYCQQHYSIPLTFGAGTKLELK", "measurement-units": "nM", "Kd": 32.8}
{"binder": "anti-GPNMB antibody GPN-01 (antibody, human IgG1, V domains shown, chimeric) VH: QVQLQQSGAELAKPGASVKLSCKASGYNFTNYCIHWVKQRPGQGLEWIGYINPSTGYTEYNQKFKDKATLTADKSSTTAYMQLSSLTSEDSAVYYCARGRYDEFTYWGQGTLVTVSA VL: DIVLTQSPASLAVSLGQRATISCRASKSVSTSTYSYMHWYQQKPGQPPKLLIYLASNLESGVPARFSGSGSGTDFTLNIHPVEEEDAATYYCQHSRELPPTFGGGTKLEIK", "measurement-units": "nM", "Kd": 31}
{"binder": "anti-GPNMB antibody GPN-30 (antibody, human IgG1, V domains shown, chimeric) VH: EVQLQQSGPELVNPGASVRISCKASGYSFTGYYMNWVKQSPEKSLEWIGEINPNTGFTTYNQNFKAKATLTVDKSSSTAYIQLKSLTSEDSAVYYCTRPSPSFDYWGQGTTLTVSS VL: DIQMTQSPSSLSASLGERGSLTCRASQEISGHLSWLQQKPDGTIKRLIYAASTLDSGVPKRFSGSRSGSDYSLTISSLESEDFADYYCLQYASYPYTFGGGTKLEIK", "measurement-units": "nM", "Kd": 5.1}
{"binder": "anti-GPNMB antibody GPN-25 (antibody, human IgG1, V domains shown, chimeric) VH: EVQLQQSGPELVKPGASVKISCKASGYSFTGYYMNWVKQSPEKSLEWIGEINPGSGITTYNQKFKAKATLTVDKSSSTAYLQLKSLTSEDSAVYYCARPASWFAYWGQGTLVTVSA VL: DIQMTQSPSSLSASLGERVSFICRASQEISGHLSWLQQKPDGTIKRLIYAASTLDSGVPKRFSGSRSGSDYSLTISSLESEDFADYYCLQYASYPYTFGGGTKLEIK", "measurement-units": "nM", "Kd": 7.4}
{"binder": "anti-GPNMB antibody GPN-11 (antibody, human IgG1, V domains shown, chimeric) VH: QVQLQQPGAELVKPGASVKLSCKASGYTFTSYWMHWVKQRPGQGLEWIGEINSSNGRTNYNEKFKTKATLTVDRSSSTAYMQLSSLTSEDSAVYYCARLGYYSGSPYPYYAMDCWGQGTSVTVSS VL: DIQMTQSPASLSVSVGETVTITCRASENIYSNLAWYQQKQGKSPQLLVYAATNLADGVPSRFSGSGSGTQYSLKINSLQSEDFGSYYCQHFWNTPPTFGGGTKLEIK", "measurement-units": "nM", "Kd": 12.1}
{"binder": "anti-GPNMB antibody GPN-09 (antibody, human IgG1, V domains shown, chimeric) VH: QVQLQQSGAELVKPGASVKLSCKASGYTFTSYYIYWVKQRPGQGLEWIGEINPSNGGTYFNEKFKNKATLTVDKSSSTAYMQLSSLTSEDSAVYYCTRGGNYYAYWGQGTLVTVSA VL: DIQMTQSPSSLSASLGERVSLTCRASQEISGHLGWLQQKPDGTIKRLIYAALTLDSGVPKRFSGSRSGSDYSLTISSLESEDFADYYCLQYASYPYTFGGGTKLEIK", "measurement-units": "nM", "Kd": 8.4}
{"binder": "anti-GPNMB antibody GPN-26 (antibody, human IgG1, V domains shown, chimeric) VH: EVQLQQSGPELVKPGASVKISCKASGYSFTGYYMNWVRQSPEKSLEWIGEINPSTGITTYNQKFKAKATLTVDKSSNTAFMQLKSLTSEDSAVYYCARPASWFDYWGQGTLVTVSA VL: DIQMTQSPSSLSASLGERVSLTCRASQEISGHLSWLQQKPDGTIKRLIYAASTLDSGVPKRFSGSRSGSDYSLTISSLESEDFADYYCLQYASYPYTFGGGTKLEIK", "measurement-units": "nM", "Kd": 8.9}

src = patent US20250270343A1
